- Test system: Botulinum neurotoxin type F light chain protease (Clostridium botulinum)
- experiment_description: Botulinum neurotoxin type F light chain protease inhibition, multiplex microsphere flow cytometry, validation set (AID 588459)
- protocol_conditions: multiplex microsphere protease substrate cleavage assay, at 10 µM, active compounds read high
outcome_measure: inhibition (%)
Give just the number in %; leave the unit off.

Look up inhibition for this compound: CC(C)(C)C(=O)Nc1cccc(OC(F)(F)C(F)Cl)c1 (configuration not stated) 3.3

Look up inhibition for this compound: CC1(C)CC(CC(=O)Nc2nccs2)(c2ccccc2)CCO1 (configuration not stated) 3.8

Look up inhibition for this compound: Cc1cc(=O)oc2cc(OC(C)C(=O)NCC3CCCO3)ccc12 (configuration not stated) 3

Look up inhibition for this compound: NC(N)=N/N=C/c1cccc(Cl)c1Cl 0.9

Look up inhibition for this compound: O=C(CCC(=O)NCCO)NCCO 1.2

Look up inhibition for this compound: CCC(=O)O[C@]1(C(=O)CCl)[C@@H](C)C[C@H]2[C@@H]3CCC4=CC(=O)C=C[C@]4(C)[C@@]3(F)[C@@H](O)C[C@@]21C -0.5

Look up inhibition for this compound: NCc1ccccc1COc1ccccc1 2.3
